test: Plasma stability (37° C., pH 7.4), rat; type: in vitro ADME, Sprague-Dawley rat; conditions: male, Sprague-Dawley, rat, plasma, pH 7.4, rat plasma; read-out: Half-life, calculated value in parentheses
quantity_measured: half-life at 1 μM (min)
Just the number please, in min, no unit attached.

Sure, the documented half-life at 1 μM for CCCCCCCCCCCCCCCC(=O)NCCOC(=O)CCC(=O)OC(COC(=O)CCC)COC(=O)CCC is 6.9

* * *

experiment: Liver microsomal stability, dog; conditions: male, Beagle, microsomes, CLint, Dog liver microsomes, control compound
quantity_measured: microsomal CLint (µL/min/mg)
Just the number please, in µL/min/mg, no unit attached.

Sure, the documented microsomal CLint for C[C@]12CC[C@H]3[C@@H](CCC4=CC(=O)CC[C@@]43C)[C@@H]1CC[C@@H]2O [Testosterone, testosterone, reference compound] is 41.9

* * *

test: in vitro; conditions: male, CD-1, mouse, 60 min, 1 μM
Catalogue of Measured concentration of analyte PEA, 60 min values
Just the number please, in µM, no unit attached.

Some solved entries appear below for comparison.
compound: CCCCCCCCCCCCCCCC(=O)NCCOC(=O)CCC(=O)OCC(O)CO (stereo not drawn)
reading: 0.036
--
compound: CCCCCCCCCCCCCCCC(=O)NCCOC(=O)CCC(=O)OC[C@H]1O[C@@](CO)(O[C@H]2O[C@H](CO)[C@@H](O)[C@H](O)[C@H]2O)[C@@H](O)[C@@H]1O
reading: 0.034

Continue with the next compound.
Sure, the documented Measured concentration of analyte PEA, 60 min for CCCCCCCCCCCCCCCC(=O)NCCOC(=O)CCC(=O)OCC(COC(=O)CCCCCCC)OC(=O)CCCCCCC (stereo not drawn) [Compound I-3, PEA-Succinate-Glycerol-Di-Caprylic] is 0.025

* * *

assay: in vitro; settings: male, CD-1, mouse, s9, CLint, calculated (in parentheses)
quantity_measured: microsomal CLint at 1 μM (µL/min/mg)
Just the number please, in µL/min/mg, no unit attached.

Sure, the documented microsomal CLint at 1 μM for CCCCC/C=C\C/C=C\CCCCCCCC(=O)OCC(COC(=O)CCC(=O)OCCNC(=O)CCCCCCCCCCCCCCC)OC(=O)CCCCCCC/C=C\C/C=C\CCCCC (stereo not shown) is 9.51

* * *

experiment: in vitro; conditions: both, human, microsomes, 20 min, 1 μM
Give 1 when the value for % Remaining of Initial, 20 min is at least 60%. Give -1 when it is less.

Past entries and their recorded results:
compound: CCCCCCCCCCCCCCCC(=O)NCCOC(=O)CCC(=O)OCC(COC(=O)CCCCCCC)OC(=O)CCCCCCC (stereo not shown) [Compound I-3, PEA-Succinate-Glycerol-Di-Caprylic]
discrete_label: 1
--
compound: CCCCCCCCCCCCCCCC(=O)NCCOC(=O)CCC(=O)OC[C@H]1O[C@@](CO)(O[C@H]2O[C@H](CO)[C@@H](O)[C@H](O)[C@H]2O)[C@@H](O)[C@@H]1O
discrete_label: -1
--
compound: CCCCCCCCCCCCCCCC(=O)NCCOC(=O)CCC(=O)OCC(COC(=O)CCC)OC(=O)CCC (stereo not shown)
discrete_label: -1
--
compound: CCCCCCCCCCCCCCCC(=O)NCCOC(=O)CCC
discrete_label: -1
--
compound: CCCCC/C=C\C/C=C\CCCCCCCC(=O)OCCNC(=O)CCCCCCCCCCCCCCC
discrete_label: -1
--
compound: CCCCCCCCCCCCCCCC(=O)NCCOC(=O)CCC(=O)OCC(O)CO (stereo not shown)
discrete_label: -1

As a next step, examine the compound that follows.
Reported % Remaining of Initial, 20 min at or above 60%? CC/C=C\C/C=C\C/C=C\C/C=C\C/C=C\CCCC(=O)OCCNC(=O)CCCCCCCCCCCCCCC
1
